Where these numbers come from: patent US20210186960A1

assay: Plasma PK and tissue distribution after oral dosing of prodrug EXAMPLE 7 (5 mg/kg); assay type: in vivo; settings: male, Wistar Han, rat, lymph node, po, 5 mg/kg, PO 5 mg/kg EXAMPLE 7 (prodrug), 1 hr, analyte as labelled, read-out: lymph node Concentration Mean

COMPOUND: CC(C)CN(c1ccc([C@H](C)CC(=O)O)cc1Nc1cnc(Cl)cn1)C1CCOCC1 [intermediate C4]
concentration at 1 h, ng/g: 807

====

assay: Plasma PK and tissue distribution after oral dosing of prodrug EXAMPLE 7 (5 mg/kg); assay type: in vivo; settings: male, Wistar Han, rat, spleen/plasma, po, 5 mg/kg, PO 5 mg/kg EXAMPLE 7 (prodrug), 4 hr, analyte as labelled, read-out: Spleen to plasma ratio Mean

COMPOUND: CC(C)CN(c1ccc([C@H](C)CC(=O)O)cc1Nc1cnc(Cl)cn1)C1CCOCC1 [intermediate C4]
Kp at 4 h: 0.289

====

assay: Plasma PK and tissue distribution after oral dosing of INTERMEDIATE C4 (3 mg/kg); format: in vivo; conditions: male, Wistar Han, rat, liver / plasma, po, 3 mg/kg, PO 3 mg/kg INTERMEDIATE C4, male Wistar Han rat, 8 hr; read-out: Liver to plasma ratio individual
ATTRIBUTE_MEASURED: Kp at 8 h

MOLECULE: CC(C)CN(c1ccc([C@H](C)CC(=O)O)cc1Nc1cnc(Cl)cn1)C1CCOCC1 [intermediate C4]
ATTRIBUTE_MEASURED: Kp at 8 h
QUANTITATIVE_READOUT: 16

====

assay: Plasma PK and tissue distribution after oral dosing of INTERMEDIATE C4 (3 mg/kg); format: in vivo; conditions: male, Wistar Han, rat, spleen, po, 3 mg/kg, PO 3 mg/kg INTERMEDIATE C4, male Wistar Han rat, 4 hr; read-out: spleen Concentration Mean
ATTRIBUTE_MEASURED: concentration at 4 h (ng/g)

COMPOUND: CC(C)CN(c1ccc([C@H](C)CC(=O)O)cc1Nc1cnc(Cl)cn1)C1CCOCC1 [intermediate C4]
ATTRIBUTE_MEASURED: concentration at 4 h
QUANTITATIVE_READOUT: 19.9

====

assay: Plasma PK and tissue distribution after oral dosing of prodrug EXAMPLE 7 (5 mg/kg); assay type: in vivo; details: male, Wistar Han, rat, lymph node, po, 5 mg/kg, PO 5 mg/kg EXAMPLE 7 (prodrug), 8 hr, analyte as labelled
ATTRIBUTE_MEASURED: concentration at 8 h (ng/g)

COMPOUND: CC(C)CN(c1ccc([C@H](C)CC(=O)O)cc1Nc1cnc(Cl)cn1)C1CCOCC1 [intermediate C4]
ATTRIBUTE_MEASURED: concentration at 8 h
QUANTITATIVE_READOUT: 11.2

====

test: Plasma PK and tissue distribution after oral dosing of prodrug EXAMPLE 7 (5 mg/kg); type: in vivo; details: male, Wistar Han, rat, lymph node/plasma, po, 5 mg/kg, PO 5 mg/kg EXAMPLE 7 (prodrug), 8 hr, analyte as labelled, read-out: Lymph node to plasma ratio individual
ATTRIBUTE_MEASURED: Kp at 8 h

MOLECULE: CC(C)CN(c1ccc([C@H](C)CC(=O)O)cc1Nc1cnc(Cl)cn1)C1CCOCC1 [intermediate C4]
QUANTITATIVE_READOUT: 0.994
